experiment: Half-life in dog; type: in vivo; details: dog, in vivo
VALUE_KIND: half-life

Data request: Provide half-life value for the following molecule: Cc1cccc(-c2nn3c(c2-c2ccnc4ccc(C(N)=O)cc24)CCC3)n1
Data returned: 2.26 h

====

target: TGF-βR-I kinase domain (Homo sapiens, UniProt P36897, T204D); assay: Ki of Eli Lilly TGF-β SMIs; settings: data on file, Eli Lilly and Company
Sequence (P36897 148-503 T204D limits assumed): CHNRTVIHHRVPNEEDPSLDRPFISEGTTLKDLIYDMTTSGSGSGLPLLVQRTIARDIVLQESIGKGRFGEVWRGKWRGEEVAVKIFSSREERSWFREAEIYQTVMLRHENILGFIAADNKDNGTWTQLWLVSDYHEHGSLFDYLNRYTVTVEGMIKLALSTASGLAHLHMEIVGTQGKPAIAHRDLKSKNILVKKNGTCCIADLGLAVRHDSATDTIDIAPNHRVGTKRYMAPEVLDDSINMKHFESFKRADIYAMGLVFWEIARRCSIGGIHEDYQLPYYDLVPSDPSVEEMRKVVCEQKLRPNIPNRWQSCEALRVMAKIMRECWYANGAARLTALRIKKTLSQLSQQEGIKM
VALUE_KIND: Ki (nM)
Answers are plain numbers, in nM.

Data request: Give reported Ki value for Cc1cccc(-c2nn3c(c2-c2ccc(F)cc2)CCC3)n1
Data returned: 37

====

test: Half-life in rat; assay type: in vivo; settings: rat, in vivo
VALUE_KIND: half-life (min)
One number for each entry, in min.

Data request: Tell me its half-life given Cc1cccc(-c2nn3c(c2-c2ccnc4ccc(C(N)=O)cc24)CCC3)n1 as the entry.
Data returned: 31.8
